What Trimeric HA Binding: RLU was measured for each of the following?
Molecular target: recombinant soluble homotrimeric HA of A/chicken/Vietnam/NCVD-016/08 (H5N1) (Influenza A virus A/chicken/Vietnam/NCVD-016/08 (H5N1))
Experiment: microarray, BCC supernatant IgG, trimeric HA
Conditions: remark: other sources report otherwise
Unit RLU implied. Number only.

Inquiry: Recorded Trimeric HA Binding: RLU of TCN-551 (5243_D01) (antibody, V domains shown) VH: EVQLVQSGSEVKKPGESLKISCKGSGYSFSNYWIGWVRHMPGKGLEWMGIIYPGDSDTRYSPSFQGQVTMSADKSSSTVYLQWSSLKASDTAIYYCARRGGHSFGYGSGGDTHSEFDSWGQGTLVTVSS VL: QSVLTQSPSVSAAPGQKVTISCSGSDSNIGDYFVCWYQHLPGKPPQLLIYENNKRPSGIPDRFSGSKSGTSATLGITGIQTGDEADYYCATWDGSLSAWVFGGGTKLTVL , please.
Reply text: 42300

Inquiry: # Trimeric HA Binding: RLU lookup, item TCN-533 (5256_A17) (antibody, V domains shown) VH: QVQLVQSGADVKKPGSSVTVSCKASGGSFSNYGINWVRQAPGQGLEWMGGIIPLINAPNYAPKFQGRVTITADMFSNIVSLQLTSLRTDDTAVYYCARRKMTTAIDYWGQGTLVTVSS VL: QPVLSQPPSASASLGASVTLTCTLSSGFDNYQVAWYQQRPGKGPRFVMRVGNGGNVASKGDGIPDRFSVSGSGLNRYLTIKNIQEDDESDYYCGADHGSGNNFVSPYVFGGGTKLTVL
Reply text: 47700

Inquiry: # lookup: Trimeric HA Binding: RLU of TCN-531 (5091_H13) (antibody, V domains shown) VH: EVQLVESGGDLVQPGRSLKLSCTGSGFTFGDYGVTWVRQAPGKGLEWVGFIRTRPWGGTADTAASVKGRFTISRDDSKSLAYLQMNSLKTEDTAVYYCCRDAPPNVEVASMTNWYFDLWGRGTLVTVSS VL: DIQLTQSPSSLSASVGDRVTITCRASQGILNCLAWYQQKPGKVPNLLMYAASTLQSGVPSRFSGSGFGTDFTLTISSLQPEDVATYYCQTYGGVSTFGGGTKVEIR
Reply text: 20800
